FYI, the data here is from ChEMBL document CHEMBL1127584.

Give measured Ki for each item. Keep answers brief.
Molecular target: Human immunodeficiency virus type 1 protease (Human immunodeficiency virus 1, UniProt Q72874)
Assay: Inhibition of recombinant HIV-1 protease
Kindly write the number and append the unit.

COMPOUND	RESULT
C[C@H](N)C(=O)N[C@@H](C)C(=O)N[C@@H](Cc1ccccc1)[C@@H](O)CCC(=O)NC(c1ccccc1)c1cc2ccccc2[nH]1 (stereo partly specified)	200 nM
NC(=O)C[C@H](NC(=O)c1ccc2ccccc2n1)C(=O)NC(Cc1ccccc1)[C@@H](O)CCC(=O)NC(c1cccc(C(F)(F)F)c1)c1cc2ccccc2[nH]1 (stereo partly specified)	33 nM
CC(C)CC(=O)N[C@H](C(=O)N[C@H](C(=O)N[C@@H](CC(C)C)[C@@H](O)CC(=O)N[C@@H](C)C(=O)N[C@@H](CC(C)C)[C@@H](O)CC(=O)O)C(C)C)C(C)C [PEPSTATIN]	3100 nM
Cc1cccc(C(NC(=O)CC[C@H](O)C(Cc2ccccc2)NC(=O)[C@H](CC(N)=O)NC(=O)c2ccc3ccccc3n2)c2cc3ccccc3[nH]2)c1 (stereo partly specified)	39 nM
COC(=O)[C@@H](CC(=O)[C@@H](NC(=O)CC[C@H](O)[C@H](Cc1ccccc1)NC(=O)[C@H](C)NC[C@H](C)N)C(C)C)C(C)C	18 nM

Turning now to a further compound:
Query: Supply Ki value. Item: NC(=O)C[C@H](NC(=O)c1ccc2ccccc2n1)C(=O)NC(Cc1ccccc1)[C@@H](O)CCC(=O)NC(c1cc2ccccc2[nH]1)C1CCCCC1 (stereo partly specified)
Result: 180 nM

---

Give measured pKi for each item. Keep answers brief.
Biological target: Human immunodeficiency virus type 1 protease (Human immunodeficiency virus 1, UniProt Q72874)
Test: Inhibition of recombinant HIV-1 protease
One number for each entry, as −log10 of the molar value.

Field: example entries. Status: answers known.
COMPOUND	pKi
NC(=O)C[C@H](NC(=O)c1ccc2ccccc2n1)C(=O)NC(Cc1ccccc1)[C@@H](O)CCC(=O)NC(c1ccccc1)c1nc2ccccc2[nH]1 (stereo partly drawn)	6.32
NC(=O)C[C@H](NC(=O)c1ccc2ccccc2n1)C(=O)NC(Cc1ccccc1)[C@@H](O)C[C@@H](Cc1ccccc1)C(=O)NC(c1ccccc1)c1cc2ccccc2[nH]1 (stereo partly drawn)	5.89

Turning now to a further compound:
Query: Supply pKi value. Item: NC(=O)C[C@H](NC(=O)c1ccc2ccccc2n1)C(=O)NC(Cc1ccccc1)[C@@H](O)CCC(=O)NC(c1ccccc1)c1cc2ccccc2[nH]1 (stereo partly drawn)
Result: 7.37
